# assayed.system: activity with respect to vitamin K (vitamin K epoxide substrate), microsomal liver fractions from sensitive rats (Rattus norvegicus, UniProt Q6TEK4)
# Construct: with 0.5 to 1 mg of microsomal liver fractions from sensitive rats; from tissue; host or cells: rat liver microsomes (sensitive rats)
# Sequence (Q6TEK4 1-161): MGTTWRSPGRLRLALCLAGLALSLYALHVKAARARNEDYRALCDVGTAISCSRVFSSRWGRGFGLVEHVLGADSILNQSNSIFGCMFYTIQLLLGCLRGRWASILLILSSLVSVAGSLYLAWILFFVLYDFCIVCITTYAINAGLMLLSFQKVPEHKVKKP
# assay.text: Inhibition of vitamin K epoxide reduction (activity with respect to vitamin K) in rat liver microsomes, IC50
# Assay type: biochemical
# test.conditions: microsomal liver fractions from sensitive rats, vitamin K epoxide substrate, 30 minutes at 37° C., pH 7.4, 1 mM dithiothreitol; read-out: IC50
measured.attribute: IC50

Enquiry: Identify the reported IC50 for the following entry. CCCCCCCCCCCCCCCCCCCCc1c(O)c2ccccc2oc1=O [IX, reference compound]
Return: > 500 nM

Data origin: patent US20140187625A1
